Assay: stability (content) of ingredients included in the Salvia miltiorrhiza extract on storage
Assay type: physicochemical
Conditions: extract made with 0% EtOH, before storage
endpoint name: Content (mg/g) of ingredient in Salvia miltiorrhiza extract
Give the value in mg/g but do not write mg/g after it.

These recorded examples may help you get a feel for the data.
compound | measurement units | measured number
Cc1coc2c1C(=O)c1ccc3c(C)cccc3c1C2=O [Isotanshinone] | mg/g | 2.22
O=C(/C=C/c1ccc(O)c2c1[C@H](C(=O)O[C@H](Cc1ccc(O)c(O)c1)C(=O)O)[C@@H](c1ccc(O)c(O)c1)O2)O[C@H](Cc1ccc(O)c(O)c1)C(=O)O [Salvianolic acid B] | mg/g | 21.2
Cc1coc2c1C(=O)C(=O)c1c-2ccc2c1CCCC2(C)C [Tanshinone IIA] | mg/g | 1.33

Okay, next one:
GET /values?readout=Content (mg/g) of ingredient in Salvia miltiorrhiza extract&item= O=C(O)[C@H](O)Cc1ccc(O)c(O)c1 [Danshensu]
0.34

Value source: patent US20230390352A1
